- EXPERIMENT DESCRIPTION: Pharmacokinetic studies in mice, plasma levels by LC/MS-MS
- Assay type: in vivo, C57B6/J mice
- TEST CONTEXT: male, C57B6/J, mouse, plasma; mice, IV 2 mg/kg
- Protocol: Male C57B6/J mice, 8 weeks old were used (Charles River). All procedures were performed in accordance with the Ethical Guidelines of European Communities Council (Directive 2010/63/EU of 22 Sep. 2010) and accepted by the Italian Ministry of Health. All efforts were made to minimize animal suffering and to use the minimal number of animals required to produce reliable results, according to the “3Rs concept”. Animals were group-housed in ventilated cages and had free access to food and water. […]
MEASUREMENT KIND: AUC (µg·h/mL)

compound="CCC(=O)N1N=C(c2c(-c3ccccc3)c3cc(Cl)ccc3[nH]c2=O)CC1c1ccc(OC)cc1 (stereo not shown)" measurement_kind=AUC unit_name=µg·h/mL experimental_value=0.899

----------
- EXPERIMENT DESCRIPTION: Pharmacokinetic studies in mice, plasma levels by LC/MS-MS
- Type: in vivo, C57B6/J mice
- TEST CONTEXT: male, C57B6/J, mouse, plasma; mice, IP 20 mg/kg
MEASUREMENT KIND: Cmax (ng/mL)

compound="CCC(=O)N1N=C(c2c(-c3ccccc3)c3cc(Cl)ccc3[nH]c2=O)CC1c1ccc(OC)cc1 (stereo not shown)" unit_name=ng/mL experimental_value=5300

----------
- Tested on: BxPC-3 cells
- EXPERIMENT DESCRIPTION: Cell viability assay (CellTiter Glo)
- Assay type: cell-based
- TEST CONTEXT: Homo sapiens, 72 h
Rule: EC50 below 60 µM gives TRUE, anything at or above gives FALSE.

molecule="CCCn1ncc2cc(C3CC(c4c(-c5ccccc5)c5cc(Cl)ccc5[nH]c4=O)=NN3C(=O)CCC(=O)O)ccc21 (stereo not shown)" qualitative_label=FALSE
molecule="CCn1cc2cc(C3CC(c4c(-c5ccccc5)c5cc(Cl)ccc5[nH]c4=O)=NN3C(C)=O)ccc2n1 (stereo not shown)" qualitative_label=TRUE
molecule="CCn1cc2cc(-c3ccc(C4CC(c5c(-c6ccccc6)c6cc(Cl)ccc6[nH]c5=O)=NN4C(=O)CCC(=O)O)cc3)ccc2n1 (stereo not shown)" qualitative_label=TRUE
molecule="COc1ccc(-c2c(C3=NN(C(=O)CCC(=O)O)C(c4ccc(F)cc4)C3)c(=O)[nH]c3ccc(Cl)cc23)cc1 (stereo not shown)" qualitative_label=FALSE
molecule="COc1ccc(C2CC(c3c(-c4ccccc4)c4cc(Cl)ccc4[nH]c3=O)=NN2C(=O)CCC(=O)O)cc1F (stereo not shown)" qualitative_label=FALSE
molecule="CCCn1cc2cc(C3CC(c4c(-c5ccccc5)c5cc(Cl)ccc5[nH]c4=O)=NN3C(=O)CCC(=O)O)ccc2n1 (stereo not shown)" qualitative_label=FALSE
molecule="CC(=O)N1N=C(c2c(-c3ccccc3)c3cc(Cl)ccc3[nH]c2=O)CC1c1ccc(F)cc1 (stereo not shown)" qualitative_label=TRUE

----------
- EXPERIMENT DESCRIPTION: Pharmacokinetic studies in mice, plasma levels by LC/MS-MS
- Assay type: in vivo, C57B6/J mice
- TEST CONTEXT: male, C57B6/J, mouse, plasma; mice, PO 2 mg/kg
MEASUREMENT KIND: Cmax (ng/mL)

compound="CCC(=O)N1N=C(c2c(-c3ccccc3)c3cc(Cl)ccc3[nH]c2=O)CC1c1ccc(OC)cc1 (stereo not shown)" unit_name=ng/mL experimental_value=76

----------
- EXPERIMENT DESCRIPTION: Pharmacokinetic studies in mice, plasma levels by LC/MS-MS
- Assay type: in vivo, C57B6/J mice
- TEST CONTEXT: male, C57B6/J; mouse plasma, PO 2 mg/kg, 480 min; read-out: Average conc.
MEASUREMENT KIND: concentration at 480 min (ng/mL)

compound="CCC(=O)N1N=C(c2c(-c3ccccc3)c3cc(Cl)ccc3[nH]c2=O)CC1c1ccc(OC)cc1 (stereo not shown)" unit_name=ng/mL experimental_value=4

----------
- EXPERIMENT DESCRIPTION: Pharmacokinetic studies in mice, plasma levels by LC/MS-MS
- Format: in vivo, C57B6/J mice
- TEST CONTEXT: male, C57B6/J, mouse, plasma; mice, IP 20 mg/kg
MEASUREMENT KIND: AUC (ng·h/mL)

compound="CCC(=O)N1N=C(c2c(-c3ccccc3)c3cc(Cl)ccc3[nH]c2=O)CC1c1ccc(OC)cc1 (stereo not shown)" measurement_kind=AUC experimental_value=9280

----------
- Tested on: BxPC-3 cells
- EXPERIMENT DESCRIPTION: Cell viability assay (CellTiter Glo)
- Type: cell-based
- TEST CONTEXT: Homo sapiens, 72 h
Entries and their log10 of EC50
MEASUREMENT KIND: log10 of EC50 (log10 of the value in µM)

compound="CCCn1ncc2cc(C3CC(c4c(-c5ccccc5)c5cc(Cl)ccc5[nH]c4=O)=NN3C(C)=O)ccc21 (centres unmarked)" tested_target="BxPC-3 cells" measurement_kind="log10 of EC50" experimental_value=1.04
compound="CC(=O)N1N=C(c2c(-c3ccccc3)c3cc(Cl)ccc3[nH]c2=O)CC1c1ccccc1 (centres unmarked)" tested_target="BxPC-3 cells" measurement_kind="log10 of EC50" experimental_value=1.47
compound="CC(=O)N1N=C(c2c(-c3ccccc3)c3cc(Cl)ccc3[nH]c2=O)CC1c1ccncc1 (centres unmarked)" tested_target="BxPC-3 cells" measurement_kind="log10 of EC50" experimental_value=1.39
compound="CC(=O)N1N=C(c2c(-c3ccccc3)c3cc(Cl)ccc3[nH]c2=O)CC1c1ccc(C(C)(C)C)cc1 (centres unmarked)" tested_target="BxPC-3 cells" measurement_kind="log10 of EC50" experimental_value=1.18
compound="CC(=O)N1N=C(c2c(-c3ccccc3)c3cc(Cl)ccc3[nH]c2=O)CC1c1ccc(-c2ccc(Cl)cc2)cc1 (centres unmarked)" tested_target="BxPC-3 cells" measurement_kind="log10 of EC50" experimental_value=1.27
compound="CC(=O)N1N=C(c2c(-c3ccccc3)c3cc(Cl)ccc3[nH]c2=O)CC1c1ccc(Cl)cc1 (centres unmarked)" tested_target="BxPC-3 cells" measurement_kind="log10 of EC50" experimental_value=1.30
compound="O=C(O)CCC(=O)N1N=C(c2c(Cc3ccccc3)c3cc(Cl)ccc3[nH]c2=O)CC1c1ccc(-c2ccc(Cl)cc2)cc1 (centres unmarked)" tested_target="BxPC-3 cells" measurement_kind="log10 of EC50" experimental_value=1.45
compound="O=C(O)CCC(=O)N1N=C(c2c(-c3ccccc3)c3cc(Cl)ccc3[nH]c2=O)CC1c1ccc(-c2ccc(Br)cc2)cc1 (centres unmarked)" tested_target="BxPC-3 cells" measurement_kind="log10 of EC50" experimental_value=1.63
compound="O=C(O)CCC(=O)N1N=C(c2c(-c3ccccc3)c3cc(Cl)ccc3[nH]c2=O)CC1c1ccc(C(F)(F)F)cc1 (centres unmarked)" tested_target="BxPC-3 cells" measurement_kind="log10 of EC50" experimental_value=1.70
compound="CC(=O)N1N=C(c2c(Cc3ccccc3)c3cc(Cl)ccc3[nH]c2=O)CC1c1ccc(F)cc1 (centres unmarked)" tested_target="BxPC-3 cells" measurement_kind="log10 of EC50" experimental_value=1.18
compound="O=C(O)CCC(=O)N1N=C(c2c(-c3ccccc3)c3cc(Cl)ccc3[nH]c2=O)CC1c1ccc(-c2ccc(F)cc2)cc1 (centres unmarked)" tested_target="BxPC-3 cells" measurement_kind="log10 of EC50" experimental_value=1.49
compound="CC(=O)N1N=C(c2c(-c3ccccc3)c3cc(Cl)ccc3[nH]c2=O)CC1c1ccc2c(ccn2C)c1 (centres unmarked)" tested_target="BxPC-3 cells" measurement_kind="log10 of EC50" experimental_value=0.68

----------
- EXPERIMENT DESCRIPTION: Pharmacokinetic studies in mice, plasma levels by LC/MS-MS
- Type: in vivo, C57B6/J mice
- TEST CONTEXT: male, C57B6/J, mouse, plasma; mice, IP 20 mg/kg
MEASUREMENT KIND: Tmax (min)

molecule="CCC(=O)N1N=C(c2c(-c3ccccc3)c3cc(Cl)ccc3[nH]c2=O)CC1c1ccc(OC)cc1 (stereo not shown)" measurement_kind=Tmax experimental_value=30

----------
- EXPERIMENT DESCRIPTION: Pharmacokinetic studies in mice, plasma levels by LC/MS-MS
- Type: in vivo, C57B6/J mice
- TEST CONTEXT: male, C57B6/J, mouse, plasma; mice, IV 2 mg/kg; read-out: VD (calc)
MEASUREMENT KIND: Vd (L/kg)

compound="CCC(=O)N1N=C(c2c(-c3ccccc3)c3cc(Cl)ccc3[nH]c2=O)CC1c1ccc(OC)cc1 (stereo not shown)" experimental_value=2.2

----------
- TESTED TARGET: BRC4/RAD51 interaction (Homo sapiens, UniProt Q06609)
- Construct: Life Technologies (BRC4 peptide)
- Sequence (Q06609 1-339): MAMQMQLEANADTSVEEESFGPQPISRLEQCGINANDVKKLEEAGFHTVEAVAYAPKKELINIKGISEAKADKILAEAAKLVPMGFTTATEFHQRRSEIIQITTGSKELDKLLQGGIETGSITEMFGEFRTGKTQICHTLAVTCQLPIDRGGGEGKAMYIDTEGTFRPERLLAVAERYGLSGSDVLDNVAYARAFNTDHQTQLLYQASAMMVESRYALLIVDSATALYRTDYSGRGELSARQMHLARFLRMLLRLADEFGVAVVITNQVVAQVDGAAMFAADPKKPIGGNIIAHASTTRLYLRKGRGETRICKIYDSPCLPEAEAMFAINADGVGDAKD
- EXPERIMENT DESCRIPTION: Competitive ELISA assay, disruption of BRC4/RAD51 interaction
- TEST CONTEXT: human Rad51, biotinylated BRC4 peptide
pEC50: −log10 of the molar value.
MEASUREMENT KIND: pEC50

compound="CCC(=O)N1N=C(c2c(Cc3ccccc3)c3cc(Cl)ccc3[nH]c2=O)CC1c1ccc(F)cc1 (stereo not shown)" operator== experimental_value=4.19
compound="CCCn1ncc2cc(C3CC(c4c(-c5ccccc5)c5cc(Cl)ccc5[nH]c4=O)=NN3C(=O)CCC(=O)O)ccc21 (stereo not shown)" operator=< experimental_value=4.00
compound="CC(=O)N1N=C(c2c(-c3ccccc3)c3cc(Cl)ccc3[nH]c2=O)CC1c1ccccc1 (stereo not shown)" operator== experimental_value=4.72
compound="Cn1ccc2cc(C3CC(c4c(-c5ccccc5)c5cc(Cl)ccc5[nH]c4=O)=NN3C(=O)CCC(=O)O)ccc21 (stereo not shown)" operator== experimental_value=5.70
